target: T1, Clostridium difficile toxin A (Clostridioides difficile …, UniProt P16154); test: SPR; conditions: both partners purified
T1 construct: also called TcdA
EXPERIMENTAL_READOUT: log10(kon) (log10 of the value in M⁻¹ s⁻¹)
Field: value | Transform: log10 | Quantity: kon | Unit: M⁻¹ s⁻¹

BINDER: A26.8 VHH Q101K, T103R (VHH, source: E. coli TG1, periplasmic extract, purified (IMAC, SEC)) VHH: QVKLEESGGGLVQAGGSLRLSCAASERTFSRYPVAWFRQAPGAEREFVAVISSTGTSTYYADSVKGRFTISRDNAKVTVYLQMNNLKREDTAVYFCAVNSKRRRLQDPNEYDYWGQGTQVTVSS
REPORTED_RESULT: 6.74

BINDER: A26.8 VHH T56R, Q101K (VHH, source: E. coli TG1, periplasmic extract, purified (IMAC, SEC)) VHH: QVKLEESGGGLVQAGGSLRLSCAASERTFSRYPVAWFRQAPGAEREFVAVISSTGRSTYYADSVKGRFTISRDNAKVTVYLQMNNLKREDTAVYFCAVNSKRTRLQDPNEYDYWGQGTQVTVSS
REPORTED_RESULT: 7.09

BINDER: A26.8 VHH E110Q (VHH, source: E. coli TG1, periplasmic extract, purified (IMAC, SEC)) VHH: QVKLEESGGGLVQAGGSLRLSCAASERTFSRYPVAWFRQAPGAEREFVAVISSTGTSTYYADSVKGRFTISRDNAKVTVYLQMNNLKREDTAVYFCAVNSQRTRLQDPNQYDYWGQGTQVTVSS
REPORTED_RESULT: 6.32

BINDER: A26.8 VHH T103M (VHH, source: E. coli TG1, periplasmic extract, purified (IMAC, SEC)) VHH: QVKLEESGGGLVQAGGSLRLSCAASERTFSRYPVAWFRQAPGAEREFVAVISSTGTSTYYADSVKGRFTISRDNAKVTVYLQMNNLKREDTAVYFCAVNSQRMRLQDPNEYDYWGQGTQVTVSS
REPORTED_RESULT: 6.26

BINDER: A26.8 VHH T56I (VHH, source: E. coli TG1, periplasmic extract, purified (IMAC, SEC)) VHH: QVKLEESGGGLVQAGGSLRLSCAASERTFSRYPVAWFRQAPGAEREFVAVISSTGISTYYADSVKGRFTISRDNAKVTVYLQMNNLKREDTAVYFCAVNSQRTRLQDPNEYDYWGQGTQVTVSS
REPORTED_RESULT: 6.28

For each entry beneath this line, provide reported log10(kon).
1. A26.8 VHH T56R, Q101K, T103R (VHH, also called lead triple mutant; source: E. coli TG1, periplasmic extract, purified (IMAC, SEC)) VHH: QVKLEESGGGLVQAGGSLRLSCAASERTFSRYPVAWFRQAPGAEREFVAVISSTGRSTYYADSVKGRFTISRDNAKVTVYLQMNNLKREDTAVYFCAVNSKRRRLQDPNEYDYWGQGTQVTVSS
2. A26.8 VHH T56R, Q101K, T103K (VHH, source: E. coli TG1, periplasmic extract, purified (IMAC, SEC)) VHH: QVKLEESGGGLVQAGGSLRLSCAASERTFSRYPVAWFRQAPGAEREFVAVISSTGRSTYYADSVKGRFTISRDNAKVTVYLQMNNLKREDTAVYFCAVNSKRKRLQDPNEYDYWGQGTQVTVSS

A.
7.09
7.17
